Each entry below lists one item and its recorded No. of chicks value.
Species: Gallus gallus
Assay: Number of chicks cleared of eimeria tenella lesions out of a group of 5 when given in the diet at 200 ppm
Assay type: functional

[
  {
    "compound": "CCOP(=O)(CCSc1ncnc2c1cnn2C1O[C@H](CO)[C@@H](O)[C@H]1O)OCC (some centres undefined)",
    "No. of chicks": 1
  },
  {
    "compound": "CCCCCSc1ncnc2c1cnn2C1O[C@H](CO)[C@@H](O)[C@H]1O (some centres undefined)",
    "No. of chicks": 5
  },
  {
    "compound": "COC(=O)CSc1ncnc2c1cnn2C1O[C@H](CO)[C@@H](O)[C@H]1O (some centres undefined)",
    "No. of chicks": 0
  },
  {
    "compound": "C/C=C/CSc1ncnc2c1cnn2C1O[C@H](CO)[C@@H](O)[C@H]1O (some centres undefined)",
    "No. of chicks": 5
  },
  {
    "compound": "C=CCSc1ncnc2c1cnn2C1O[C@H](CO)[C@@H](O)[C@H]1O (some centres undefined)",
    "No. of chicks": 5
  },
  {
    "compound": "CCCCSc1ncnc2c1cnn2C1O[C@H](CO)[C@@H](O)[C@H]1O (some centres undefined)",
    "No. of chicks": 5
  },
  {
    "compound": "OC[C@H]1OC(n2ncc3c(SC4CCCC4)ncnc32)[C@H](O)[C@@H]1O (some centres undefined)",
    "No. of chicks": 1
  },
  {
    "compound": "CC(=O)CSc1ncnc2c1cnn2C1O[C@H](CO)[C@@H](O)[C@H]1O (some centres undefined)",
    "No. of chicks": 0
  }
]

--- query ---
Request: Looking for the measured No. of chicks of CCCCCCSc1ncnc2c1cnn2C1O[C@H](CO)[C@@H](O)[C@H]1O (some centres undefined) , can you help?
Result: 5

###

Tested on: Eimeria tenella
Assay: Inhibition Eimeria tenella growth
Assay type: functional
Details: read-out: MEC
Each entry below lists one item and its recorded minimal effective concentration value.
Your answer should be a plain number; it is taken to be in µg/mL.

Request: Entry C/C=C/CSc1ncnc2c1cnn2C1O[C@H](CO)[C@@H](O)[C@H]1O (stereo partly specified) , system Eimeria tenella: what minimal effective concentration was measured?
Result: 0.019

Request: Entry "CSc1ncnc2c1ncn2[C@@H]1O[C@H](CO)[C@@H](O)[C@H]1O" , system Eimeria tenella: what minimal effective concentration was measured?
Result: 0.31

Request: Entry "CCSc1ncnc2c1ncn2[C@@H]1O[C@H](CO)[C@@H](O)[C@H]1O" , system Eimeria tenella: what minimal effective concentration was measured?
Result: 1.25

Request: Entry "CCCCCSc1ncnc2[nH]cnc12" , system Eimeria tenella: what minimal effective concentration was measured?
Result: 20

Request: Entry OC[C@H]1OC(n2ncc3c(SC4CCCC4)ncnc32)[C@H](O)[C@@H]1O (stereo partly specified) , system Eimeria tenella: what minimal effective concentration was measured?
Result: 5

Request: Entry CCOP(=O)(CCSc1ncnc2c1cnn2C1O[C@H](CO)[C@@H](O)[C@H]1O)OCC (stereo partly specified) , system Eimeria tenella: what minimal effective concentration was measured?
Result: 5

Request: Entry "CCCCCSc1[nH]cnc2nncc1-2" , system Eimeria tenella: what minimal effective concentration was measured?
Result: 5

Request: Entry COC(=O)CSc1ncnc2c1cnn2C1O[C@H](CO)[C@@H](O)[C@H]1O (stereo partly specified) , system Eimeria tenella: what minimal effective concentration was measured?
Result: 20
